Taken from paper PMC8717366.

assay.comment: Pharmacokinetics in rats after single i.v. dose
Type: in vivo, Male Wistar rats
experimental.parameters: rat, in vivo, iv, single i.v. dose 0.515 mg/kg, n = 4, Table 3, read-out: Vd
Numbered stars: 1 amine (or outer) side, 2 acyl side, 3 side chain; on linkers, the order of the positions; unused ones are H or OH. Bridge positions count the residues as written; N and C are the ends. Square brackets hold non-standard residues; d marks the D form. Peptide text beside a SMILES is read from it. CO = O=C([*:1])[*:2]; Nlys = NCCCCNCC(=O)O
measured.parameter: Vd
Could you give the number and then its unit, please?

## Task GET /values?readout=Vd&item= CSCC[C@@H]1NC(=O)[C@H]([C@@H](C)O)NC(=O)CN(C(=O)[C@@H](N)CCCCN)CCCCNC(=O)NCCCCN(CC(=O)N[C@@H](CC(C)C)C(N)=O)C(=O)[C@H](CC(=O)O)NC(=O)[C@H](CC(C)C)NC1=O [visabron c (4–4)] (H-K[Nlys]TMLD[Nlys]L-NH2; linker 2-7 via CO)
## Result 0.381 L/kg
